Listed below: KINOMEscan: BRSK1 values for each entry.
molecular target: panel of 442 kinases (Homo sapiens); construct: purchased KINOMEscan; assay type: binding; conditions: Compound Concentration 10 µM

query: GET /values?readout=KINOMEscan: BRSK1&item= `COc1cc(C(=O)N2CCC(N3CCN(C)CC3)CC2)ccc1Nc1ncc2c(n1)N(C1CCCC1)c1ccccc1C(=O)N2C`
result: 84

***
query: GET /values?readout=KINOMEscan: BRSK1&item= `CCOc1cc(C(=O)N2CCC(N3CCN(C)CC3)CC2)ccc1Nc1ncc2c(n1)N(C1CCCC1)c1ccccc1C(=O)N2C`
result: 100

query: Try this compound next: `COc1cc(C(=O)N2CCC(N3CCN(C)CC3)CC2)ccc1Nc1ncc2c(n1)N(C)c1ccccc1C(=O)N2C`
result: 81

query: Try this compound next: `COc1cc(C(=O)N2CCC(N3CCN(C)CC3)CC2)ccc1Nc1ncc2c(n1)N1CCc3cccc(c31)C(=O)N2C`
result: 82

* * *

target: panel of 442 kinases (Homo sapiens); construct: purchased KINOMEscan; assay type: binding; details: Compound Concentration 10 µM
Listed below: KINOMEscan: FGFR2 values for each entry.
Just the number, please.

Solved entries (count: 3):
query: GET /values?readout=KINOMEscan: FGFR2&item= `COc1cc(C(=O)N2CCC(N3CCN(C)CC3)CC2)ccc1Nc1ncc2c(n1)N1CCc3cccc(c31)C(=O)N2C`
result: 83

query: Try this molecule next: `CCOc1cc(C(=O)N2CCC(N3CCN(C)CC3)CC2)ccc1Nc1ncc2c(n1)N(C1CCCC1)c1ccccc1C(=O)N2C`
result: 100

query: Try this molecule next: `COc1cc(C(=O)N2CCC(N3CCN(C)CC3)CC2)ccc1Nc1ncc2c(n1)N(C1CCCC1)c1ccccc1C(=O)N2C`
result: 100

Next item in the queue.
query: GET /values?readout=KINOMEscan: FGFR2&item= `COc1cc(C(=O)N2CCC(N3CCN(C)CC3)CC2)ccc1Nc1ncc2c(n1)N(C)c1ccccc1C(=O)N2C`
result: 95

* * *

Listed below: % Ctrl, VEGFR2 values for each entry.
target: panel of 442 kinases (Homo sapiens, UniProt P35968); construct: purchased KINOMEscan; assay type: binding; conditions: kinase VEGFR2; compound concentration 10 µM
Sequence (P35968 20-1356): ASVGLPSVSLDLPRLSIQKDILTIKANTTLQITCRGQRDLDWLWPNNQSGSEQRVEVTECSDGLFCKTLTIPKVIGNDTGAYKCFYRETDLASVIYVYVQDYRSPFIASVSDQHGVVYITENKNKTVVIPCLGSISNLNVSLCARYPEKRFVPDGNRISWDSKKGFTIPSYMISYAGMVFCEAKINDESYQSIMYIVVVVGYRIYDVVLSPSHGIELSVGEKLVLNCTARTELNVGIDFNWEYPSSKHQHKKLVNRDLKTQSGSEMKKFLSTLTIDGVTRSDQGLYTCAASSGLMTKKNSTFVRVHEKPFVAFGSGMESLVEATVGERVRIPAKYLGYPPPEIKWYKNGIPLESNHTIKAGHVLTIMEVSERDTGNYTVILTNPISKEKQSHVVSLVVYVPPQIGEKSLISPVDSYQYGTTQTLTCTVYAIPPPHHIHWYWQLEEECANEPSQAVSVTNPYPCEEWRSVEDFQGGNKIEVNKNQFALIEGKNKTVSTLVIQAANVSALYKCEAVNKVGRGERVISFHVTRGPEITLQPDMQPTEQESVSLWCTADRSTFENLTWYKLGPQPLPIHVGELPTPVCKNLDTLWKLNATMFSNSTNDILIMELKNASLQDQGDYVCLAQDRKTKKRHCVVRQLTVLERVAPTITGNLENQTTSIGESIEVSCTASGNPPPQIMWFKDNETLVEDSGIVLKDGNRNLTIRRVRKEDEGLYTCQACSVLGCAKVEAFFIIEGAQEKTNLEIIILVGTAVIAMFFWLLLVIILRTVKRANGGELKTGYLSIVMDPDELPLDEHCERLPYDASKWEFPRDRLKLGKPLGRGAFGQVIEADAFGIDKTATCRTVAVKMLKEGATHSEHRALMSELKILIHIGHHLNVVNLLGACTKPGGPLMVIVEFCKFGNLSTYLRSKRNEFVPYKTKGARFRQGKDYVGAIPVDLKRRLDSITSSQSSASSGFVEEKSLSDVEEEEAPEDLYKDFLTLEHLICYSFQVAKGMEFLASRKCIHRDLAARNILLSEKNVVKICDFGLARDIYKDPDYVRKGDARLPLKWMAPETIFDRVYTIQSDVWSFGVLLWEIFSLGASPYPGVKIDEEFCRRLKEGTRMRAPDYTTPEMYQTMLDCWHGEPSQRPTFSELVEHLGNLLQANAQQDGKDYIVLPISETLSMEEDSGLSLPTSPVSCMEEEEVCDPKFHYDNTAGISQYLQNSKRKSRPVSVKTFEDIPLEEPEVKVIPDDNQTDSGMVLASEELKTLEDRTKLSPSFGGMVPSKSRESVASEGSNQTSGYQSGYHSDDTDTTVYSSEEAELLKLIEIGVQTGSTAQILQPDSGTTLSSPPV
Report as a plain number; the unit % Ctrl is understood.

Solved entries (count: 3):
query: GET /values?readout=% Ctrl, VEGFR2&item= `COc1cc(C(=O)N2CCC(N3CCN(C)CC3)CC2)ccc1Nc1ncc2c(n1)N(C1CCCC1)c1ccccc1C(=O)N2C`
result: 100

query: Try this compound next: `COc1cc(C(=O)N2CCC(N3CCN(C)CC3)CC2)ccc1Nc1ncc2c(n1)N1CCc3cccc(c31)C(=O)N2C`
result: 100

query: Try this compound next: `CCOc1cc(C(=O)N2CCC(N3CCN(C)CC3)CC2)ccc1Nc1ncc2c(n1)N(C1CCCC1)c1ccccc1C(=O)N2C`
result: 100

Next item in the queue.
query: GET /values?readout=% Ctrl, VEGFR2&item= `COc1cc(C(=O)N2CCC(N3CCN(C)CC3)CC2)ccc1Nc1ncc2c(n1)N(C)c1ccccc1C(=O)N2C`
result: 84

* * *

Listed below: KINOMEscan: CIT values for each entry.
target: panel of 442 kinases (Homo sapiens); construct: purchased KINOMEscan; assay type: binding; details: Compound Concentration 10 µM
Just the number, please.

Solved entries (count: 3):
query: GET /values?readout=KINOMEscan: CIT&item= COc1cc(C(=O)N2CCC(N3CCN(C)CC3)CC2)ccc1Nc1ncc2c(n1)N1CCc3cccc(c31)C(=O)N2C [Compound 24]
result: 1.5

query: Try this compound next: COc1cc(C(=O)N2CCC(N3CCN(C)CC3)CC2)ccc1Nc1ncc2c(n1)N(C1CCCC1)c1ccccc1C(=O)N2C [Compound 25]
result: 66

query: Try this compound next: COc1cc(C(=O)N2CCC(N3CCN(C)CC3)CC2)ccc1Nc1ncc2c(n1)N(C)c1ccccc1C(=O)N2C [15 (LRRK2-IN-1)]
result: 99

***
query: GET /values?readout=KINOMEscan: CIT&item= CCOc1cc(C(=O)N2CCC(N3CCN(C)CC3)CC2)ccc1Nc1ncc2c(n1)N(C1CCCC1)c1ccccc1C(=O)N2C [Compound 26]
result: 98

* * *

Listed below: KINOMEscan: EPHA6 values for each entry.
molecular target: panel of 442 kinases (Homo sapiens); assay type: binding; details: Compound Concentration 10 µM
Just the number, please.

Solved entries (count: 3):
query: GET /values?readout=KINOMEscan: EPHA6&item= `CCOc1cc(C(=O)N2CCC(N3CCN(C)CC3)CC2)ccc1Nc1ncc2c(n1)N(C1CCCC1)c1ccccc1C(=O)N2C`
result: 100

query: Try this compound next: `COc1cc(C(=O)N2CCC(N3CCN(C)CC3)CC2)ccc1Nc1ncc2c(n1)N(C)c1ccccc1C(=O)N2C`
result: 89

query: Try this compound next: `COc1cc(C(=O)N2CCC(N3CCN(C)CC3)CC2)ccc1Nc1ncc2c(n1)N(C1CCCC1)c1ccccc1C(=O)N2C`
result: 100

Next item in the queue.
query: GET /values?readout=KINOMEscan: EPHA6&item= `COc1cc(C(=O)N2CCC(N3CCN(C)CC3)CC2)ccc1Nc1ncc2c(n1)N1CCc3cccc(c31)C(=O)N2C`
result: 97

* * *

molecular target: panel of 442 kinases (Homo sapiens); construct: purchased KINOMEscan; type: binding; details: kinase TGFBR1; compound concentration 10 µM
property.label: % Ctrl, TGFBR1 (% Ctrl)
Report as a plain number; the unit % Ctrl is understood.

Solved entries (count: 3):
query: // lookup % Ctrl, TGFBR1 | system=panel of 442 kinases (Homo sapiens) | key= `COc1cc(C(=O)N2CCC(N3CCN(C)CC3)CC2)ccc1Nc1ncc2c(n1)N(C)c1ccccc1C(=O)N2C`
result: 100

query: Try this compound next: `COc1cc(C(=O)N2CCC(N3CCN(C)CC3)CC2)ccc1Nc1ncc2c(n1)N(C1CCCC1)c1ccccc1C(=O)N2C`
result: 98

query: Try this compound next: `COc1cc(C(=O)N2CCC(N3CCN(C)CC3)CC2)ccc1Nc1ncc2c(n1)N1CCc3cccc(c31)C(=O)N2C`
result: 100

***
query: // lookup % Ctrl, TGFBR1 | system=panel of 442 kinases (Homo sapiens) | key= `CCOc1cc(C(=O)N2CCC(N3CCN(C)CC3)CC2)ccc1Nc1ncc2c(n1)N(C1CCCC1)c1ccccc1C(=O)N2C`
result: 100

* * *

target: panel of 442 kinases (Homo sapiens, UniProt O14965); construct: purchased KINOMEscan; format: binding; set-up: unit: % Ctrl; settings: Compound Concentration 10 µM
Sequence (O14965 whole entry): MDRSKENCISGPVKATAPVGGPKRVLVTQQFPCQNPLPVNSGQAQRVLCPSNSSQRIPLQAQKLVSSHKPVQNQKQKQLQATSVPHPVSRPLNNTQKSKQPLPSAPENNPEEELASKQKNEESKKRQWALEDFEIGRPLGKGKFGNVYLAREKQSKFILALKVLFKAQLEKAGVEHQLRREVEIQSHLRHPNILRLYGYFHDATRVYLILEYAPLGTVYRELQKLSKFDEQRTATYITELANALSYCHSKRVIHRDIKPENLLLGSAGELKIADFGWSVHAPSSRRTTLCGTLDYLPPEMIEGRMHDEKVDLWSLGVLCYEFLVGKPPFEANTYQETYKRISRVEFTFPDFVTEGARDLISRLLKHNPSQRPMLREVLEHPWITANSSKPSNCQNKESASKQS
property.label: KINOMEscan: AURKA
Just the number, please.

Solved entries (count: 2):
query: GET /values?readout=KINOMEscan: AURKA&item= `COc1cc(C(=O)N2CCC(N3CCN(C)CC3)CC2)ccc1Nc1ncc2c(n1)N1CCc3cccc(c31)C(=O)N2C`
result: 28

query: Try this compound next: `COc1cc(C(=O)N2CCC(N3CCN(C)CC3)CC2)ccc1Nc1ncc2c(n1)N(C)c1ccccc1C(=O)N2C`
result: 1.2

***
query: GET /values?readout=KINOMEscan: AURKA&item= `CCOc1cc(C(=O)N2CCC(N3CCN(C)CC3)CC2)ccc1Nc1ncc2c(n1)N(C1CCCC1)c1ccccc1C(=O)N2C`
result: 100

query: Try this compound next: `COc1cc(C(=O)N2CCC(N3CCN(C)CC3)CC2)ccc1Nc1ncc2c(n1)N(C1CCCC1)c1ccccc1C(=O)N2C`
result: 28

* * *

target: panel of 442 kinases (Homo sapiens, UniProt Q8NI60); construct: purchased KINOMEscan; format: binding; conditions: Compound Concentration 10 µM
Sequence (Q8NI60 163-647): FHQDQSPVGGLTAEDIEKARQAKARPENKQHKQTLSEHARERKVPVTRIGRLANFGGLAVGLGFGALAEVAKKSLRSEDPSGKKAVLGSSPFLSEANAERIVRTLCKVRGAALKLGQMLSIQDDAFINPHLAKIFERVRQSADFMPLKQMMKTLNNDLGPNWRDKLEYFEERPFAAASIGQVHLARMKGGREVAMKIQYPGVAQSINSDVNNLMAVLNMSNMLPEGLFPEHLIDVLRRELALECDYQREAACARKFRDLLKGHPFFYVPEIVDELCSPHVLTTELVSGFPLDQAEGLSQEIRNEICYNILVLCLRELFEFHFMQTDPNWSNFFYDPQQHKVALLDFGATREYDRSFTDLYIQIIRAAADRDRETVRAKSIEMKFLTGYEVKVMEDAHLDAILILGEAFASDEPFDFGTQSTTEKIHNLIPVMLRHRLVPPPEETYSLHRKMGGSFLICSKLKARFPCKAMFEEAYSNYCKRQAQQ
property.label: KINOMEscan: ADCK3
Just the number, please.

query: GET /values?readout=KINOMEscan: ADCK3&item= `CCOc1cc(C(=O)N2CCC(N3CCN(C)CC3)CC2)ccc1Nc1ncc2c(n1)N(C1CCCC1)c1ccccc1C(=O)N2C`
result: 59

query: Try this molecule next: `COc1cc(C(=O)N2CCC(N3CCN(C)CC3)CC2)ccc1Nc1ncc2c(n1)N(C1CCCC1)c1ccccc1C(=O)N2C`
result: 61

query: Try this molecule next: `COc1cc(C(=O)N2CCC(N3CCN(C)CC3)CC2)ccc1Nc1ncc2c(n1)N1CCc3cccc(c31)C(=O)N2C`
result: 56

Next item in the queue.
query: GET /values?readout=KINOMEscan: ADCK3&item= `COc1cc(C(=O)N2CCC(N3CCN(C)CC3)CC2)ccc1Nc1ncc2c(n1)N(C)c1ccccc1C(=O)N2C`
result: 71

* * *

Biological target: panel of 442 kinases (Homo sapiens, UniProt Q02779)
Construct: purchased KINOMEscan
Sequence (Q02779 whole entry): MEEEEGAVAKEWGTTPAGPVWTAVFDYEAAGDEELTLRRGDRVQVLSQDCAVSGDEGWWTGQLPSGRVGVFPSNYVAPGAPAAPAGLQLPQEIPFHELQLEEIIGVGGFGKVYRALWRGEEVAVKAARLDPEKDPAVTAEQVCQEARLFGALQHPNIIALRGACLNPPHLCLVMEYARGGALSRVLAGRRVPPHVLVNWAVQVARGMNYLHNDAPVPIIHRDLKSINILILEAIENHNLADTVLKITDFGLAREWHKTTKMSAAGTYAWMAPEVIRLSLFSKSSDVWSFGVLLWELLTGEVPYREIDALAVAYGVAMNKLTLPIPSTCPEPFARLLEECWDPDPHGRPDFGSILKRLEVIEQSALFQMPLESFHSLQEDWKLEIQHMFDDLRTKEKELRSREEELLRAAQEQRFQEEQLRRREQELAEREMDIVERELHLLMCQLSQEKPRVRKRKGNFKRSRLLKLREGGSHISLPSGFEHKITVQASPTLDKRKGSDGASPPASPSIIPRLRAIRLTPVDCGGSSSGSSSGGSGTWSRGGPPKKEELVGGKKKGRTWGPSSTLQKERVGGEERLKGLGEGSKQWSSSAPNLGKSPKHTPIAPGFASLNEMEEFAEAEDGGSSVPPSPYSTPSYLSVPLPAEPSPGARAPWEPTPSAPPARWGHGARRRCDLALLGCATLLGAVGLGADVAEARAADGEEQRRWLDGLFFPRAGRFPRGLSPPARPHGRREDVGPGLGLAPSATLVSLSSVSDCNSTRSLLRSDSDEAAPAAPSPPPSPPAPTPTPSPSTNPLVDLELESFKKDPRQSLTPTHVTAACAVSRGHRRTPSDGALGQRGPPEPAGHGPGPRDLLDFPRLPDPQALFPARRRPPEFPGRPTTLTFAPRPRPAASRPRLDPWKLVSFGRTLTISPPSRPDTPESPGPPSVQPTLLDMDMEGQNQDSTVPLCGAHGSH
Format: binding
Settings: Compound Concentration 10 µM
Source text: We assessed the selectivity of members of this scaffold using the KINOMEscan methodology across a near comprehensive panel of 442 kinases [[18,27]].
property.label: KINOMEscan: MLK2
Just the number, please.

Solved entries (count: 3):
query: GET /values?readout=KINOMEscan: MLK2&item= COc1cc(C(=O)N2CCC(N3CCN(C)CC3)CC2)ccc1Nc1ncc2c(n1)N1CCc3cccc(c31)C(=O)N2C [Compound 24]
result: 98

query: Try this compound next: CCOc1cc(C(=O)N2CCC(N3CCN(C)CC3)CC2)ccc1Nc1ncc2c(n1)N(C1CCCC1)c1ccccc1C(=O)N2C [Compound 26]
result: 100

query: Try this compound next: COc1cc(C(=O)N2CCC(N3CCN(C)CC3)CC2)ccc1Nc1ncc2c(n1)N(C)c1ccccc1C(=O)N2C [15 (LRRK2-IN-1)]
result: 100

Next item in the queue.
query: GET /values?readout=KINOMEscan: MLK2&item= COc1cc(C(=O)N2CCC(N3CCN(C)CC3)CC2)ccc1Nc1ncc2c(n1)N(C1CCCC1)c1ccccc1C(=O)N2C [Compound 25]
result: 96

Ref: paper PMC3914206
